Cited source for all entries: patent US20240270821A1

- testedTarget: human GcgR (Homo sapiens, UniProt P47871)
- Sequence (P47871 26-477): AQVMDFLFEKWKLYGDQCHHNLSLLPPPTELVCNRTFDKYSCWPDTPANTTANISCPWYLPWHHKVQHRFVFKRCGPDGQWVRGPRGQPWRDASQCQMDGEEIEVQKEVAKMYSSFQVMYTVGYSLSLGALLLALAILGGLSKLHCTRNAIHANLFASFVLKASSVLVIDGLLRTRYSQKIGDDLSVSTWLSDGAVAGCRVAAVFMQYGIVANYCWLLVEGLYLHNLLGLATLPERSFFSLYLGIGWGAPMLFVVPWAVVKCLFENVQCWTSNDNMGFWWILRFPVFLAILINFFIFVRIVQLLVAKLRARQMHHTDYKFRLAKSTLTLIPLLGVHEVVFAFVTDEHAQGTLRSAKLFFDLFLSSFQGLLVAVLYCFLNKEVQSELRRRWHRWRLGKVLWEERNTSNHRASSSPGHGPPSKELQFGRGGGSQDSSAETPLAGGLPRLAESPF
- testProtocol: Functional cAMP activity in the presence of 1% HSA
- Type: cell-based
- statedConditions: read-out: cAMP Rel EC50, hGcgR
Starred links: 1 amine or outer side, 2 acyl side, 3 side chain; linkers in the order of their positions; H or OH if unused. Non-standard residues stand in square brackets, D forms with d. Groups on a side chain read outwards from the residue. No end group written: not given here. *: point of attachment. C20 diacid = O=C(O)CCCCCCCCCCCCCCCCCCC(=O)*; C18 diacid = O=C(O)CCCCCCCCCCCCCCCCC(=O)*; αMePhe(2-F) = C[C@](N)(Cc1ccccc1F)C(=O)O; γGlu = O=C(O)[C@H](CCC(=O)[*:2])N[*:1]; αMe4Pal = C[C@](N)(Cc1ccncc1)C(=O)O; αMeY = C[C@](N)(Cc1ccc(O)cc1)C(=O)O; αMeF = C[C@](N)(Cc1ccccc1)C(=O)O; 4Pal = N[C@@H](Cc1ccncc1)C(=O)O; αMeL = CC(C)C[C@](C)(N)C(=O)O; αMeS = C[C@](N)(CO)C(=O)O; Orn = NCCC[C@H](N)C(=O)O; AEEA = NCCOCCOCC(=O)O; Aib = CC(C)(N)C(=O)O
Mark yes only when EC50 stays strictly below 500 nM. Values equal to the cut-off are no.

[[record]]
substance = "Y[Aib]QGTFTSD[4Pal]SQ[αMeL]LDKK([AEEA-γGlu-C18 diacid])AQ[αMe4Pal]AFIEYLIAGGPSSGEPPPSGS-NH2 [Example 828]"
answerlabel = "yes"

[[record]]
substance = "H-Y[Aib]QGTFTSDYSI[αMeL]LDKQAAK([AEEA-AEEA-γGlu-C20 diacid])QFVEWLLA[Aib]GPSSGAPPPSEG-NH2 [Example 327]"
answerlabel = "no"

[[record]]
substance = "H-Y[Aib]QGT[αMeF]TSD[4Pal][αMeS]I[αMeL]LD[Orn]K([γGlu-γGlu-C18 diacid])AQ[αMe4Pal]EFI[dE][αMeY]LIEGGPSSGAPPPSGSE-NH2 [Example 1172]"
answerlabel = "yes"


Answer whether the substance H-Y[Aib]QGT[αMeF]TSD[4Pal][αMeS]I[αMeL]LD[Orn]K([AEEA-γGlu-C18 diacid])AQ[αMe4Pal]EFI[dE][αMeY]LIEGGPSSGEPPPSGSE-NH2 [Example 1167] has EC50 strictly less than 500 nM
yes

Answer whether the substance H-Y[Aib]QGT[αMePhe(2-F)]TSD[4Pal]SILLDKK([γGlu-γGlu-C18 diacid])AQ[Aib]AFIEYLEEGGPSSGAPPPSGGGE-NH2 [Example 619] has EC50 strictly less than 500 nM
no

Answer whether the substance H-Y[Aib]QGT[αMePhe(2-F)]TSD[4Pal][αMeS]I[αMeL]LD[Orn]K([AEEA-γGlu-C18 diacid])AQ[αMe4Pal]EFI[dE][αMeY]LIEGGPSSGAPPPSGGGE-NH2 [Example 741] has EC50 strictly less than 500 nM
yes

Answer whether the substance H-Y[Aib]Q[dA]T[αMePhe(2-F)]TSD[4Pal][αMeS]I[αMeL]LD[Orn]K([γGlu-γGlu-C18 diacid])AQ[Aib]EFI[dE][αMeY]LIEGGPSSGAPPPSGSE-NH2 [Example 1224] has EC50 strictly less than 500 nM
yes

Answer whether the substance H-Y[Aib]QGTFTSD[4Pal]S[Orn][αMeL]LD[Orn]K([dE-γGlu-C18 diacid])AQ[αMe4Pal]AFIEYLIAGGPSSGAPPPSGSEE-NH2 [Example 1063] has EC50 strictly less than 500 nM
no
